target: Procathepsin L (Homo sapiens, UniProt P07711)
Sequence (P07711 whole entry): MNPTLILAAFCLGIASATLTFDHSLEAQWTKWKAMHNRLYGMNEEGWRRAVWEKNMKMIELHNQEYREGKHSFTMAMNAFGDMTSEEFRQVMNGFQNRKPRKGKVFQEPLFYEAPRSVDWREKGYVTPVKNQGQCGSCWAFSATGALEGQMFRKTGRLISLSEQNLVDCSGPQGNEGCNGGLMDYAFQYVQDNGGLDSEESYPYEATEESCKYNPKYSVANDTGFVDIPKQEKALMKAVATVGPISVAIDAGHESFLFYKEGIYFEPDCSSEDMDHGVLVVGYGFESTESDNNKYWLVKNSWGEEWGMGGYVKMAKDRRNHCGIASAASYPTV
measurement name: pIC50
Lab note — pIC50 values are minus log10 of concentrations in M.

Form field: pIC50 recorded for CCCC[C@H](NC(=O)OC1(Cc2ccccc2)CCCC1)C(=O)C(=O)N[C@H](C)c1ccccc1 with Procathepsin L (Homo sapiens, UniProt P07711) (enter value)
5.52

* * *

target: Cathepsin (H and K) (Homo sapiens) (UniProt P09668+P43235); assay: Relative binding affinity for human cathepsins H and K; assay type: protein assay
Sequence (P09668 whole entry, looked up): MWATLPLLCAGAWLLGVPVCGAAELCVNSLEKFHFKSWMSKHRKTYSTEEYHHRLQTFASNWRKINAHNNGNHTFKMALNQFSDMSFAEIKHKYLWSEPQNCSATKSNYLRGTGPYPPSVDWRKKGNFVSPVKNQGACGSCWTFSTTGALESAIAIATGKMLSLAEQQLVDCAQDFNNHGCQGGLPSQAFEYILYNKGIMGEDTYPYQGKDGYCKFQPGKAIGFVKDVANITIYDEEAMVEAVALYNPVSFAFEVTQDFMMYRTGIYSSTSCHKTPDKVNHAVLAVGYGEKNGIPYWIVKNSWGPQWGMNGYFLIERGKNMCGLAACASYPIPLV
Sequence (P43235 whole entry, looked up): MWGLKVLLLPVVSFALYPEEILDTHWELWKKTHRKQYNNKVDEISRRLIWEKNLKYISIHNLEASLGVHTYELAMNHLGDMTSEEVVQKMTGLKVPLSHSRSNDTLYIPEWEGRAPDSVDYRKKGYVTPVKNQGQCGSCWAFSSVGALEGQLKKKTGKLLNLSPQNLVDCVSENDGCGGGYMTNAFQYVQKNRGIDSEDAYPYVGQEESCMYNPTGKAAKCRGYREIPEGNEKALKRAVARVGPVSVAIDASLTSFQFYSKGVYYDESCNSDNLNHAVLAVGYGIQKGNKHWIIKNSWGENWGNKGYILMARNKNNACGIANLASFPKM
Entries and their measured Ratio follow.

Which Ratio value belongs to CCCC[C@H](NC(=O)OC1(Cc2ccccc2)CCCC1)C(=O)C(=O)N[C@H](C)c1ccccc1 ?
> 480

Returns the measured Ratio for the input molecule. Input: CCCC[C@H](NC(=O)OCC(C)(C)c1ccccc1)C(=O)C(=O)N[C@H](C)c1ccccc1
> 77

Name the reported Ratio value associated with the molecule CCCC[C@H](NC(=O)OCC(C)(C)Cc1ccccc1)C(=O)C(=O)N[C@H](C)c1ccccc1
> 380

Given the entry CCCC[C@H](NC(=O)OCC1(CCc2ccccc2)CCC1)C(=O)C(=O)N[C@H](C)c1ccccc1 , report its measured Ratio.
> 83

GET /values?readout=Ratio&item= CCCC[C@H](NC(=O)OCC1(Cc2ccccc2)CCC1)C(=O)C(=O)N[C@H](C)c1ccccc1
> 580

Look up Ratio for this molecule: CCCC[C@H](NC(=O)OCC1(Cc2ccccc2)CCCC1)C(=O)C(=O)N[C@H](C)c1ccccc1
> 190

* * *

The reader will find reported half-life values listed item by item below.
experiment: Terminal half-life was determined in rats upon intravenous administration as a solution in 30% hydroxypropyl-beta-cyclodextrin, pH = 5.1; format: ADME, organism-based; conditions: rat, in vivo
Enter your answer as a number in h; do not include the unit.

INSERT INTO results (smiles_record, measurement_name, numeric_value) VALUES
  ('CCCC[C@H](NC(=O)OCC1(Cc2ccc(F)cc2)CCC1)C(=O)C(=O)Nc1ccn[nH]1', 'half-life', 2);

Attention now turns to another entry.
# query: half-life of entry CNC(=O)NCCCC[C@H](NC(=O)OCC1(Cc2c(F)cccc2F)CCC1)C(=O)C(=O)N[C@H](C)c1ccccc1
1.57

* * *

target: UniProtKB P09668; assay: Relative binding to human cathepsins H and K
Catalogue of Ratio values

INSERT INTO assay_data (smiles_record, measurement_name, result) VALUES
  ('CCCC[C@H](NC(=O)OCC1(CCCc2ccccc2)CCC1)C(=O)C(=O)N[C@H](C)c1ccccc1', 'Ratio', '> 120'),
  ('CN(C)S(=O)(=O)NCCCC[C@H](NC(=O)OCC1(Cc2ccc(F)cc2)CCC1)C(=O)C(=O)NCc1cccnc1', 'Ratio', '> 120'),
  ('CCCC[C@H](NC(=O)OCC1(Cc2ccc(F)cc2)CCC1)C(=O)C(=O)Nc1ccn[nH]1', 'Ratio', '> 600'),
  ('CCCC[C@H](NC(=O)OCC1(Cc2ccccc2)CCCC1)C(=O)C(=O)N[C@H](C)c1ccccc1', 'Ratio', '> 190'),
  ('CCCC[C@H](NC(=O)OCC(C)(C)Cc1ccccc1)C(=O)C(=O)N[C@H](C)c1ccccc1', 'Ratio', '> 380');

Proceeding to the next molecule to report its Ratio.
Which Ratio reading was recorded for the molecule CCCC[C@H](NC(=O)OCC1(Cc2ccccc2)CCC1)C(=O)C(=O)N[C@H](C)c1ccccc1 ?
> 580

* * *

target: Cathepsin (L and K) (Homo sapiens) (UniProt P43235+P07711); assay: Relative binding to human cathepsins L and K; type: protein assay
Please use y whenever Ratio is not below 80, and n whenever it is.

Before answering, review these 3 worked examples.
INSERT INTO measurements (smiles_record, target_desc, class_label) VALUES
  ('CCCC[C@H](NC(=O)OCC(C)(C)Cc1ccccc1)C(=O)C(=O)N[C@H](C)c1ccccc1', 'Cathepsin (L and K) (Homo sapiens) (UniProt P43235+P07711)', 'y'),
  ('CCCC[C@H](NC(=O)OC1(Cc2ccccc2)CCCC1)C(=O)C(=O)N[C@H](C)c1ccccc1', 'Cathepsin (L and K) (Homo sapiens) (UniProt P43235+P07711)', 'y'),
  ('CCCC[C@H](NC(=O)OCC1(CCc2ccccc2)CCC1)C(=O)C(=O)N[C@H](C)c1ccccc1', 'Cathepsin (L and K) (Homo sapiens) (UniProt P43235+P07711)', 'n');

Please examine the following record next.
Is Ratio for CCCC[C@H](NC(=O)OCC1(Cc2ccccc2)CCCC1)C(=O)C(=O)N[C@H](C)c1ccccc1 at or above 80?
y

* * *

Consider the following log10(IC50) values measured on Cathepsin K (Homo sapiens).
Short version: log10 scale, IC50, µM.

Some solved entries appear below for comparison.
INSERT INTO measurements (smiles_record, target_desc, numeric_value) VALUES
  ('CCCC[C@H](NC(=O)OCC(C)(C)c1ccccc1)C(=O)C(=O)N[C@H](C)c1ccccc1', 'Cathepsin K (Homo sapiens)', -1.19),
  ('CCCC[C@H](NC(=O)OCC(C)(C)Cc1ccccc1)C(=O)C(=O)N[C@H](C)c1ccccc1', 'Cathepsin K (Homo sapiens)', -1.89),
  ('CCCC[C@H](NC(=O)OCC1(Cc2ccccc2)CCCC1)C(=O)C(=O)N[C@H](C)c1ccccc1', 'Cathepsin K (Homo sapiens)', -1.59),
  ('CCCC[C@H](NC(=O)OC(CC)(CC)Cc1ccccc1)C(=O)C(=O)N[C@H](C)c1ccccc1', 'Cathepsin K (Homo sapiens)', -0.82),
  ('CCCC[C@H](NC(=O)OC1(Cc2ccccc2)CCCC1)C(=O)C(=O)N[C@H](C)c1ccccc1', 'Cathepsin K (Homo sapiens)', -1.60),
  ('C[C@@H](NC(=O)C(=O)[C@H](CCCCNC(=O)N1CCOCC1)NC(=O)OCC1(Cc2ccncc2)CCC1)c1ccccc1', 'Cathepsin K (Homo sapiens)', -2.12);

Could you now look at the following compound, please?
Give the measured log10(IC50) of CCCC[C@H](NC(=O)OC(C)(C)Cc1ccccc1)C(=O)C(=O)N[C@H](C)c1ccccc1 .
-0.20

* * *

Quick reference for half-life among some compounds
experiment: Terminal half-life was determined in rats upon intravenous administration as a solution in 40% hydroxypropyl-beta-cyclodextrin, pH = 5.1; format: ADME, organism-based; conditions: rat, in vivo
Answer format: numeric, h implied, no suffix.

INSERT INTO results (smiles_record, measurement_name, numeric_value) VALUES
  ('C[C@@H](NC(=O)C(=O)[C@H](CCCCNC(=O)N1CCOCC1)NC(=O)OCC1(Cc2ccc(F)cc2)CCC1)c1ccccc1', 'half-life', 1.83);

# next compound below
Recorded half-life for C[C@@H](NC(=O)C(=O)[C@H](CCCCNC(=O)N1CCOCC1)NC(=O)OCC1(Cc2ccncc2)CCC1)c1ccccc1 , please?
1.23

* * *

Reported bioavailability values are given for each entry in this list.
assay: Oral bioavailability in rat; assay type: ADME, organism-based; conditions: in vivo

In the examples that follow, each entry is paired with its recorded bioavailability.
INSERT INTO assay_data (smiles_record, result) VALUES
  ('C[C@@H](NC(=O)C(=O)[C@H](CCCCNC(=O)N1CCOCC1)NC(=O)OCC1(Cc2ccncc2)CCC1)c1ccccc1', '8.1%'),
  ('CN(C)S(=O)(=O)NCCCC[C@H](NC(=O)OCC1(Cc2ccc(F)cc2)CCC1)C(=O)C(=O)NCc1cccnc1', '18%'),
  ('CNC(=O)NCCCC[C@H](NC(=O)OCC1(Cc2c(F)cccc2F)CCC1)C(=O)C(=O)N[C@H](C)c1ccccc1', '15%'),
  ('C[C@@H](NC(=O)C(=O)[C@H](CCCCNC(=O)N1CCOCC1)NC(=O)OCC1(Cc2ccc(F)cc2)CCC1)c1ccccc1', '38%');

Now for another entry.
Fill in the blank: the reported bioavailability of CCCC[C@H](NC(=O)OCC1(Cc2ccc(F)cc2)CCC1)C(=O)C(=O)Nc1ccn[nH]1 is ____.
31%

* * *

Documented Ratio across a set of compounds
target: Cathepsin (S and K) (Homo sapiens) (UniProt P25774+P43235); experiment: Relative binding to human cathepsins S and K; type: protein assay
Answer with a number only.

Completed entries (count: 9):
INSERT INTO results (smiles_record, target_desc, measurement_name, numeric_value) VALUES
  ('CCCC[C@H](NC(=O)OCC1(Cc2ccccc2)CCCC1)C(=O)C(=O)N[C@H](C)c1ccccc1', 'Cathepsin (S and K) (Homo sapiens) (UniProt P25774+P43235)', 'Ratio', 0.4),
  ('CCCC[C@H](NC(=O)OCC1(CCc2ccccc2)CCC1)C(=O)C(=O)N[C@H](C)c1ccccc1', 'Cathepsin (S and K) (Homo sapiens) (UniProt P25774+P43235)', 'Ratio', 1.4),
  ('C[C@@H](NC(=O)C(=O)[C@H](CCCCNC(=O)N1CCOCC1)NC(=O)OCC1(Cc2ccc(F)cc2)CCC1)c1ccccc1', 'Cathepsin (S and K) (Homo sapiens) (UniProt P25774+P43235)', 'Ratio', 2.1),
  ('CCCC[C@H](NC(=O)OCC1(CCCc2ccccc2)CCC1)C(=O)C(=O)N[C@H](C)c1ccccc1', 'Cathepsin (S and K) (Homo sapiens) (UniProt P25774+P43235)', 'Ratio', 1),
  ('CCCC[C@H](NC(=O)OCC(C)(C)c1ccccc1)C(=O)C(=O)N[C@H](C)c1ccccc1', 'Cathepsin (S and K) (Homo sapiens) (UniProt P25774+P43235)', 'Ratio', 4.2),
  ('CCCC[C@H](NC(=O)OCC(C)(C)Cc1ccccc1)C(=O)C(=O)N[C@H](C)c1ccccc1', 'Cathepsin (S and K) (Homo sapiens) (UniProt P25774+P43235)', 'Ratio', 1.5),
  ('CN(C)S(=O)(=O)NCCCC[C@H](NC(=O)OCC1(Cc2ccc(F)cc2)CCC1)C(=O)C(=O)NCc1cccnc1', 'Cathepsin (S and K) (Homo sapiens) (UniProt P25774+P43235)', 'Ratio', 3.2),
  ('CCCC[C@H](NC(=O)OC1(Cc2ccccc2)CCCC1)C(=O)C(=O)N[C@H](C)c1ccccc1', 'Cathepsin (S and K) (Homo sapiens) (UniProt P25774+P43235)', 'Ratio', 17),
  ('CCCC[C@H](NC(=O)OCC1(Cc2ccccc2)CCC1)C(=O)C(=O)N[C@H](C)c1ccccc1', 'Cathepsin (S and K) (Homo sapiens) (UniProt P25774+P43235)', 'Ratio', 2.4);

Let's switch to this compound now.
Entry CCCC[C@H](NC(=O)OCC1(Cc2ccc(F)cc2)CCC1)C(=O)C(=O)Nc1ccn[nH]1 , system Cathepsin (S and K) (Homo sapiens) (UniProt P25774+P43235): what Ratio was measured?
6.3
